The reported numbers originate from patent US20120015907A1.

experimental.system: HCV polymerase (Hepatitis C virus genotype 1b, UniProt Q9WMX2)
Construct: (His)6 (C)
assay.procedure: biochemical
applied.conditions: polymerase assay of Biological Example 1; read-out: NS5B polymerase IC50
The label Criterion met is reserved for IC50 strictly under 0.02 µM; Criterion not met covers values equal to or above it.

CCc1ccc(-c2oc3nc(N(CCCC[C@@H](COC)C(=O)O)S(C)(=O)=O)c(C4CC4)cc3c2C(=O)NC)cc1 [Example 47.4] | Criterion met
CNC(=O)c1c(-c2ccc(C)cc2)oc2nc(N(CCC[C@@H](C)C(=O)N[C@@H](C(=O)OC)c3ccccc3)S(C)(=O)=O)c(C3CC3)cc12 [Example 29.99998] | Criterion met
CNC(=O)c1c(-c2ccc(F)cc2)oc2nc3c(cc12)CCCCCN3S(C)(=O)=O [Example 36] | Criterion not met
CCc1cc2c(C(=O)NC)c(-c3ccc(F)cc3)oc2nc1N(CCCC(C)(C)O)S(C)(=O)=O [Example 22.94] | Criterion not met
C=C[C@@H](CN(c1nc2oc(-c3ccc(F)cc3)c(C(=O)NC)c2cc1C(=C)C)S(C)(=O)=O)OCc1ccccc1 [Example 35] | Criterion not met
CNC(=O)c1c(-c2ccccn2)oc2nc(N(C)S(C)(=O)=O)c(I)cc12 [Example 2.3] | Criterion not met
CNC(=O)c1c(-c2ccc(C)cc2)oc2nc(N(CCC[C@H](C)C(=O)OCOP(=O)(O)O)S(C)(=O)=O)c(C3CC3)cc12 [Example 49] | Criterion met
CCc1cc2c(C(=O)NC)c(-c3ccc(F)cc3)oc2nc1N(CCCCS(C)(=O)=O)S(C)(=O)=O [Example 23] | Criterion not met
CNC(=O)c1c(-c2ccc(Cc3ccccc3)cc2)oc2nc(N(CCCCC(=O)O)S(C)(=O)=O)c(C3CC3)cc12 [Example 27.6] | Criterion met
CCOC(=O)C1(CCCN(c2nc3oc(-c4ccc(C)cc4)c(C(=O)NC)c3cc2C2CC2)S(C)(=O)=O)CCNCC1 [Example 29.999993] | Criterion not met
CNC(=O)c1c(-c2ccc(C)cc2C)oc2nc(N(C)S(C)(=O)=O)c(C3CC3)cc12 [Example 2.99] | Criterion not met
CNC(=O)c1c(-c2ccc(F)cc2)oc2nc(N(C)S(C)(=O)=O)c(CCCS(C)(=O)=O)cc12 [Example 4.94] | Criterion not met
CCc1cc2c(C(=O)NC)c(-c3ccc(F)cc3)oc2nc1N(C[C@@H](C)Cc1ccc(OC)nc1)S(C)(=O)=O [Example 21.6] | Criterion not met
CCc1cc2c(C(=O)NC)c(-c3ccc(F)cc3)oc2nc1N(CCN1Cc2ccccc2S1(=O)=O)S(C)(=O)=O [Example 22.994] | Criterion not met
CNC(=O)c1c(-c2ccc(C)cc2)oc2nc(N(CCCCCC(=O)O)S(C)(=O)=O)c(C3CC3)cc12 [Example 27.9] | Criterion met
CNC(=O)c1c(-c2ccc(C)cc2)oc2nc(N(CCCCC(=O)NCCCC(=O)O)S(C)(=O)=O)c(C3CC3)cc12 [Example 29.99999] | Criterion not met
CNC(=O)c1c(-c2ccc(F)cc2)oc2nc(N(CCCCS(C)(=O)=O)S(C)(=O)=O)c(I)cc12 [Example 18.997] | Criterion not met
CNC(=O)c1c(-c2ccc(F)cc2)oc2nc(N(CCC(C)S(C)(=O)=O)S(C)(=O)=O)c(C3CC3)cc12 (stereo not shown) [Example 26.6] | Criterion met
CNC(=O)c1c(-c2ccc(C)c(F)c2)oc2nc(N(CCCCC(=O)O)S(C)(=O)=O)c(C3CC3)cc12 [Example 29.999999] | Criterion met
CCc1ccc(-c2oc3nc(N(CCCC(C)(OC)C(=O)O)S(C)(=O)=O)c(C4CC4)cc3c2C(=O)NC)cc1 (stereo not shown) [Example 29.9991] | Criterion met
CCOC(=O)CCCCc1cc2c(C(=O)NC)c(-c3ccc(F)cc3)oc2nc1N(C)S(C)(=O)=O [Example 3] | Criterion not met
CNC(=O)c1c(-c2ccc(F)cc2)oc2nc(N(C)S(C)(=O)=O)c(CCC#N)cc12 [Example 14] | Criterion not met
CNC(=O)c1c(-c2ccc(F)cc2)oc2nc(N(CCCC3CCCS3(=O)=O)S(C)(=O)=O)c(I)cc12 (stereo not shown) [Example 18.97] | Criterion not met
CNC(=O)c1c(-c2ccc(F)cc2)oc2nc(N(C)S(C)(=O)=O)c(C(C)C(F)(F)F)cc12 (stereo not shown) [Example 6.1] | Criterion not met
CNC(=O)c1c(-c2ccc(F)cc2)oc2nc(N(C)S(C)(=O)=O)c(CCCCCNC(C)=O)cc12 [Example 14.3] | Criterion not met
CNC(=O)c1c(-c2ccc(C)cc2)oc2nc(N(CCC[C@H](COC)C(=O)N3C(=O)OC[C@@H]3Cc3ccccc3)S(C)(=O)=O)c(C3CC3)cc12 [Example 47.72] | Criterion met
CCc1cc2c(C(=O)NC)c(-c3ccc(F)cc3)oc2nc1N(CCCCS(=O)(=O)C(F)(F)F)S(C)(=O)=O [Example 23.97] | Criterion not met
